- test name: Pharmacokinetics of LSD by CYP genotype, pooled analysis of four phase 1 studies
- run parameters: human, plasma, oral, 100 ug, LSD Cmax, compartmental modeling, 100 μg LSD dose, CYP2D6 PMs (non-functional, N=7), mean±SD
assay endpoint: Cmax
Number first, unit second.

Cmax in this record for CCN(CC)C(=O)[C@@H]1C=C2c3cccc4[nH]cc(c34)C[C@H]2N(C)C1 [LSD, Lysergic acid diethylamide] : 2.37 ng/mL

meta.source: patent US20220280501A1
